- TARGET SYSTEM: CD73 (Homo sapiens (Human), UniProt P21589)
- Sequence (P21589 27-574): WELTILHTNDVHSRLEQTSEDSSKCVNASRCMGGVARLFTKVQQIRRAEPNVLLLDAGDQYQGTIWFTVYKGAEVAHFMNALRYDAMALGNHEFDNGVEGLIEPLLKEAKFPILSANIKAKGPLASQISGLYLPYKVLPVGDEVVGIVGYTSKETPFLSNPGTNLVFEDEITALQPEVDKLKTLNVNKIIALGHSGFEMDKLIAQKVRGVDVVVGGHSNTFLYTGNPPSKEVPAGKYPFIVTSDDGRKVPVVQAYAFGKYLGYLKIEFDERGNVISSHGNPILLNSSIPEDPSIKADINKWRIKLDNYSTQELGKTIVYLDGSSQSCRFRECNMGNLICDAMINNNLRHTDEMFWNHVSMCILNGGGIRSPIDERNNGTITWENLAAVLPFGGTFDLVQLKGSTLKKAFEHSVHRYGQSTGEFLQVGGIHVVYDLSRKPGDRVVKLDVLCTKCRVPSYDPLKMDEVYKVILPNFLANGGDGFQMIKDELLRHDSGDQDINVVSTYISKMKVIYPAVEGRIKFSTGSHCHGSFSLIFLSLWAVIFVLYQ
- Assay type: biochemical
- CONDITIONS USED: 1 mM NaH2PO4 in enzyme buffer, CD73 0.3 nM, AMP 15 uM
// values below are reported log10(IC50)
Please note: log10 values; quantity IC50; unit nM.

Here are 10 compounds together with their reported answers.
query: Quick check: log10(IC50) on CD73 (Homo sapiens (Human), UniProt P21589), item `O=c1[nH]cc(-c2cc(C3CC3)c3nccn3n2)c(=O)[nH]1` ?
result: 1.55

query: Record lookup: for CD73 (Homo sapiens (Human), UniProt P21589), what log10(IC50) belongs to `O=c1[nH]cc(-c2cc(N3CC(F)(F)C4(CC4)C3)c3nncn3n2)c(=O)[nH]1` ?
result: 0.29

query: Lookup: log10(IC50) / CD73 (Homo sapiens (Human), UniProt P21589) / O=c1[nH]cc(-c2cc(N3CCC4CC43)c3nccn3n2)c(=O)[nH]1 (stereo not drawn)
result: 1.42

query: Item: O=c1[nH]cc(-c2cc([C@H]3C[C@@H]3c3ncc(C(F)(F)F)cn3)c3ncc(F)n3n2)c(=O)[nH]1 (racemic) Test system: CD73 (Homo sapiens (Human), UniProt P21589) Read-out: log10(IC50) Value: ?
result: 0.81

query: Lookup: log10(IC50) / CD73 (Homo sapiens (Human), UniProt P21589) / O=c1[nH]cc(-c2cc([C@H]3C[C@@H]3c3ncc(Cl)cc3F)c3ncc(F)n3n2)c(=O)[nH]1 (racemic) [Example 583]
result: 0.42

query: // map COCC1(C)CCN(c2cc(-c3c[nH]c(=O)[nH]c3=O)nn3ccnc23)C1 (stereo not drawn) to recorded log10(IC50) (system: CD73 (Homo sapiens (Human), UniProt P21589))
result: 1.40

query: Hi! What's the reported log10(IC50) for `N#Cc1ccc([C@H]2C[C@@H]2c2cc(-c3c[nH]c(=O)[nH]c3=O)nn3ccnc23)cc1Cl` on CD73 (Homo sapiens (Human), UniProt P21589)?
result: -0.11

query: What reported log10(IC50) corresponds to CC1(C)CN(C(=O)c2ccc([C@H]3C[C@@H]3c3cc(-c4c[nH]c(=O)[nH]c4=O)nn4ccnc34)cc2)C1 (racemic) on CD73 (Homo sapiens (Human), UniProt P21589)?
result: 0.68

query: Missing value: log10(IC50), CD73 (Homo sapiens (Human), UniProt P21589), entry O=c1[nH]cc(-c2cc([C@H]3C[C@@H]3c3cccnc3)c3nccn3n2)c(=O)[nH]1 [Example 162] . Fill in?
result: 0.21

query: Missing value: log10(IC50), CD73 (Homo sapiens (Human), UniProt P21589), entry O=C1N(CC(F)(F)F)c2cc([C@H]3C[C@@H]3c3cc(-c4c[nH]c(=O)[nH]c4=O)nn4c(Cl)cnc34)ccc2C12CC2 [Example 388] . Fill in?
result: -0.39

***
query: Hello, I am looking for reported log10(IC50) with CD73 (Homo sapiens (Human), UniProt P21589) for `C[C@H]1CN(c2cc(-c3c[nH]c(=O)[nH]c3=O)nn3ccnc23)CC1(F)F` . Could you help?
result: 0.50

query: Form entry - test system: CD73 (Homo sapiens (Human), UniProt P21589); read-out: log10(IC50); compound: O=c1[nH]cc(-c2cc([C@H]3C[C@@H]3c3cc4c(cn3)cnn4CC(F)(F)F)c3nccn3n2)c(=O)[nH]1 [Example 636]
result: -0.47

query: Give CD73 (Homo sapiens (Human), UniProt P21589) log10(IC50) for `CC1(C)C(=O)N(CC(F)(F)F)c2cc([C@H]3C[C@@H]3c3cc(-c4c[nH]c(=O)[nH]c4=O)nn4c(F)cnc34)ccc21`
result: 0.23

query: Give recorded log10(IC50) with CD73 (Homo sapiens (Human), UniProt P21589) for the following compound: O=c1[nH]cc(-c2cc([C@H]3C[C@@H]3c3c(F)ccc(F)c3F)c3nccn3n2)c(=O)[nH]1 (racemic)
result: 0.22

query: State its log10(IC50) on CD73 (Homo sapiens (Human), UniProt P21589): CC1(C)C(=O)N(CC(F)(F)F)c2cc([C@H]3C[C@@H]3c3cc(-c4c[nH]c(=O)[nH]c4=O)nn4c(Cl)cnc34)ccc21 (racemic) [Example 212]
result: 0.09

###

- TARGET SYSTEM: CD73 (Homo sapiens (Human))
- Format: biochemical
- CONDITIONS USED: 1 mM NaH2PO4 in enzyme buffer, CD73 0.3 nM, AMP 15 uM
Grouping by measured IC50 is done with the following cut points: bottom range = under 1 nM, center range = from 1 nM up to 3 nM, top range = 3 nM and over

As a guide, the following entries are already answered.
query: Record `CC1(C)CN(c2cc(-c3c[nH]c(=O)[nH]c3=O)nn3ccnc23)C1` — which class?
result: top range

query: # bin lookup: classify O=c1[nH]cc(-c2cc([C@H]3C[C@@H]3c3nc4ccccc4[nH]3)c3nccn3n2)c(=O)[nH]1 (racemic) by its IC50
result: center range

query: Which category fits this record: `O=c1[nH]cc(-c2cc(N3CC(F)(F)C4(CC4)C3)c3nccn3n2)c(=O)[nH]1`
result: center range

Next:
query: Could you tell me which band `O=c1[nH]cc(-c2cc(OCC(F)(F)c3ccccc3)c3nccn3n2)c(=O)[nH]1` belongs to?
result: center range

query: Sort into band: O=c1[nH]cc(-c2cc([C@H]3C[C@@H]3c3ccc(C(F)(F)F)nc3)c3nccn3n2)c(=O)[nH]1 (racemic) [Example 152]
result: top range

query: Please report the category associated with O=c1[nH]cc(-c2cc(N3CC4CCC3C4)c3nccn3n2)c(=O)[nH]1 (stereo not drawn) , nothing else.
result: top range

query: Categorize the following entry: O=c1[nH]cc(-c2cc([C@H]3C[C@@H]3c3cc(OCC4CC4(F)F)c(Cl)cn3)c3nccn3n2)c(=O)[nH]1 (mixture of isomers)
result: center range

query: Which class holds `O=C1N(CC(F)(F)F)c2cc([C@H]3C[C@@H]3c3cc(-c4c[nH]c(=O)[nH]c4=O)nn4c(F)cnc34)ccc2C12CCCC2` ?
result: bottom range

###

Reported pEC50 by item:
- TARGET SYSTEM: CD73 (Homo sapiens (Human))
- ASSAY NAME: MDA-MB-231 Cell Based CD73 Activity Assay (DMEM)
- CONDITIONS USED: MDA-MB-231-GFP cells, DMEM medium with 10% human plasma, 200 uM AMP
Note on units: pEC50 is unitless, being -log10 of a concentration expressed in mol/L.

query: Consider the compound O=c1[nH]cc(-c2cc([C@H]3C[C@@H]3c3ccc4cnn(CC(F)(F)F)c4n3)c3ncc(F)n3n2)c(=O)[nH]1 [Example 610] and give its measured pEC50.
result: 9.64

Next:
query: Requested read-out: pEC50. Entry: O=c1[nH]cc(-c2cc(N3CCC(C(F)(F)F)(C(F)(F)F)C3)c3nccn3n2)c(=O)[nH]1 [Example 353]
result: 6.96

query: Which pEC50 value belongs to O=c1[nH]cc(-c2cc(NCCc3ccccc3Cl)c3nccn3n2)c(=O)[nH]1 [Example 491] ?
result: 5.77

query: Entry O=c1[nH]cc(-c2cc(OCC(F)(F)COc3ccccn3)c3nccn3n2)c(=O)[nH]1 [Example 695] has what pEC50?
result: 7.76

query: Bench note: what pEC50 did O=c1[nH]cc(-c2cc([C@H]3C[C@@H]3c3cc4c(cn3)cnn4CC(F)(F)F)c3nccn3n2)c(=O)[nH]1 (racemic) [Example 591] show?
result: 9.77

query: Which pEC50 is listed for N#Cc1c(F)cc([C@H]2C[C@@H]2c2cc(-c3c[nH]c(=O)[nH]c3=O)nn3ccnc23)cc1F [Example 557] ?
result: 8.01

query: Data request, read-out pEC50, for O=c1[nH]cc(-c2cc([C@H]3C[C@@H]3c3cc(F)c4cnn(CC(F)(F)F)c4c3)c3ncc(F)n3n2)c(=O)[nH]1 [Example 618]
result: 9.89

query: Return reported pEC50; argument: COC1CN(c2cc(-c3c[nH]c(=O)[nH]c3=O)nn3ccnc23)CC1(F)F (stereo not shown) [Example 473]
result: 7.74

query: Name the recorded pEC50 for C#CC1CCN(c2cc(-c3c[nH]c(=O)[nH]c3=O)nn3ccnc23)C1 (stereo not shown) [Example 684] .
result: 8.23

###

- TARGET SYSTEM: UniProt:P21589
- ASSAY NAME: MDA-MB-231 Cell Based CD73 Activity Assay (DMEM)
- CONDITIONS USED: MDA-MB-231-GFP cells, DMEM medium with 10% human plasma, 200 uM AMP
Below is a list of entries, each paired with its recorded pEC50 value.
Hey, just a heads up that pEC50 is the negative log base 10 of the concentration in molar.

query: Suppose we examine the molecule O=c1[nH]cc(-c2cc(N3CC(F)(F)C4(CC4)C3)n3ncnc3n2)c(=O)[nH]1 [Example 357] ; what pEC50 value has been reported?
result: 6.40

query: Record request: pEC50 value, item C[C@@]1(F)CCN(c2cc(-c3c[nH]c(=O)[nH]c3=O)nn3ccnc23)C1 [Example 186]
result: 7.65

query: Please look up its pEC50: O=c1[nH]cc(-c2cc([C@H]3C[C@@H]3c3ccc4c(C(F)(F)F)nc(CC(F)(F)F)n4c3)c3nccn3n2)c(=O)[nH]1 (racemic) [Example 609]
result: 9.41

query: Need pEC50, item O=c1[nH]cc(-c2cc(N3CC4CCC3C4)c3nccn3n2)c(=O)[nH]1 (centres unmarked) [Example 643]
result: 7.00

query: Which pEC50 is listed for O=c1[nH]cc(-c2cc([C@H]3C[C@@H]3c3ccc4c(cnn4CC(F)(F)F)c3)c3ncc(F)n3n2)c(=O)[nH]1 [Example 317] ?
result: 8.70

---
query: What value of measured pEC50 is listed for O=c1[nH]cc(-c2cc(N3C[C@H](Oc4cc(C(F)(F)F)cnn4)C(F)(F)C3)c3ncc(F)n3n2)c(=O)[nH]1 [Example 666] ?
result: 8.55

query: Can you share its pEC50? I mean this molecule: O=c1[nH]cc(-c2cc(NCC(F)(F)c3ccccc3)c3nccn3n2)c(=O)[nH]1 [Example 498]
result: 6.59

query: # lookup: pEC50 of O=c1[nH]cc(-c2cc(N3CCC4CCC43)c3nccn3n2)c(=O)[nH]1 (centres unmarked) [Example 257]
result: 6.99

query: Find the recorded pEC50 belonging to O=C(CCC(F)(F)COc1cc(-c2c[nH]c(=O)[nH]c2=O)nn2ccnc12)NCC(F)(F)F [Example 458] and report it.
result: 7.88

query: Fill in the blank: the reported pEC50 of O=c1[nH]cc(-c2cc(N3CC(F)(F)C4(CC4)C3)n3nccc3n2)c(=O)[nH]1 [Example 350] is ____.
result: 7.00

query: I'd like to know its pEC50. The molecule in question is O=c1[nH]cc(-c2cc(N3C[C@H](OC(F)F)C(F)(F)C3)c3nccn3n2)c(=O)[nH]1 [Example 201]
result: 8.19
